system: Plasmodium falciparum; experiment: Antimalarial activity against Plasmodium falciparum K1 assessed as parasite growth inhibition; assay type: functional, organism-based
recorded_endpoint: IC50 (µM)
Please reply with the bare figure in µM and do not write the unit itself.

Quick check: IC50 of COc1cc(/C=C/C(=O)c2ccc(Cl)cc2)ccc1OCc1cn(-c2ccnc3cc(Cl)ccc23)nn1 ?
3.55

====

test system: Plasmodium falciparum; assay: Antimalarial activity against CQ-sensitive Plasmodium falciparum 3D7 infected in human O+ erythrocytes assessed as parasite growth inhibition incubated for 48 hrs by SYBR Green I staining based analysis; format: functional, organism-based; conditions: 3D7, Erythrocyte
recorded_endpoint: IC50 (µM)
Write the value in µM as a bare number.

Answered examples (3):
# compound_smiles, recorded_endpoint, measured
data = [
    ("Clc1cccc(-n2cc(-c3cncc4ccccc34)nn2)c1", "IC50", 365),
    ("CC(C)(C)c1ccc(Cn2cc(-c3cccc4ccccc34)nn2)cc1", "IC50", 36.9),
    ("COC(=O)c1ccccc1-c1ccc(Cn2cc(-c3cncc4ccccc34)nn2)cc1", "IC50", 35.8),
]

Short answer please: IC50, Plasmodium falciparum, entry Clc1ccc(-n2cc(-c3cncc4ccccc34)nn2)cc1
36.9

Tell me reported IC50 for Clc1ccc2c(-c3cn(CC(c4ccccc4)c4ccccc4)nn3)ccnc2c1 , tested with Plasmodium falciparum.
91.8

====

tested on: Plasmodium falciparum; assay: Antimalarial activity against Plasmodium falciparum 3D7 infected in A+ human erythrocytes assessed as reduction in parasite growth incubated for 72 hrs by SYBR Green I staining based analysis; assay type: functional, organism-based; conditions: 3D7, Erythrocyte
The entries below come with measured pEC50 values attached.
Please report pEC50 as the negative decimal logarithm of the molar concentration, giving only the number.

Known pEC50 results, listed for orientation:
# molecule, pEC50
data = [
    ("C[C@H]1[C@H](OC(=O)CCC(=O)OCc2cn(-c3ccnc4cc(Cl)ccc34)nn2)O[C@@H]2O[C@@]3(C)CC[C@H]4[C@H](C)CC[C@@H]1[C@@]24OO3", 8.28),
    ("CCN(CC)CCCC(C)Nc1ccnc2cc(Cl)ccc12 (stereo not drawn) [CHLOROQUINE]", 7.90),
    ("Cc1nc(-c2ccccc2)c(-c2ccccc2)c2cc(-c3cn(CCOC(=O)CCC(=O)O[C@@H]4O[C@@H]5O[C@@]6(C)CC[C@H]7[C@H](C)CC[C@@H]([C@H]4C)[C@@]57OO6)nn3)ccc12", 8.28),
]

API: value(readout=pEC50, system=Plasmodium falciparum) for record C[C@H]1[C@@H](OCCCn2cc(-c3ccnc4cc(Cl)ccc34)nn2)O[C@@H]2O[C@@]3(C)CC[C@H]4[C@H](C)CC[C@@H]1[C@@]24OO3
8.03

Given the entry C[C@H]1[C@H](OC(=O)CCC(=O)O)O[C@@H]2O[C@@]3(C)CC[C@H]4[C@H](C)CC[C@@H]1[C@@]24OO3 [ARTESUNATE] , what pEC50 was observed with Plasmodium falciparum?
7.84

====

system: Plasmodium falciparum; assay: Antiplasmodial activity against CQ-resistant Plasmodium falciparum K1 at asexual erythrocyte stage by LDH assay; assay type: functional, organism-based
recorded_endpoint: IC50 (nM)
Give the quantity in nM, number only.

Please report the recorded IC50 for Clc1ccc2c(NCCn3cc(-c4ccnc(-c5ccccn5)c4)nn3)ccnc2c1 .
275
